Would you kindly list sfGFP reporter fluorescence for each of these variants?
B1: library; numbered along this chain (parent)
chain: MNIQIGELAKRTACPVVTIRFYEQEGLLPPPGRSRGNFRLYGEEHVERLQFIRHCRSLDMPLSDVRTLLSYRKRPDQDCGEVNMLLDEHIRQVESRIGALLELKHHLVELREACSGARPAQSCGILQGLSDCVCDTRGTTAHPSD

# Variants of: B1
# run_description: sfGFP reporter fluorescence (15 h) (µM FITC); higher = stronger transcriptional activation
# condition_info: library round: Round 0; ligand: 1 µM Pb
Numbers only.

Recorded sfGFP reporter fluorescence, per entry:
>  <alteration>
L107D

>  <measure>
sfGFP reporter fluorescence

>  <observed_measurement>
0.0596

$$$$
>  <alteration>
K104D

>  <measure>
sfGFP reporter fluorescence

>  <observed_measurement>
0.138

$$$$
>  <alteration>
M60L P61N G128I

>  <measure>
sfGFP reporter fluorescence

>  <observed_measurement>
1.55

$$$$
>  <alteration>
L129S

>  <measure>
sfGFP reporter fluorescence

>  <observed_measurement>
0.059

$$$$
>  <alteration>
R39A

>  <measure>
sfGFP reporter fluorescence

>  <observed_measurement>
0.0599

$$$$
>  <alteration>
T140A

>  <measure>
sfGFP reporter fluorescence

>  <observed_measurement>
0.0726

$$$$

Quick batch: sfGFP reporter fluorescence for everything below.
1. H45A
2. G36R
3. C123W
4. V82M
5. L110S
6. C79E

a:
[0.0727, 0.0656, 0.0592, 0.0586, 0.0577, 0.0596]

Quick batch: sfGFP reporter fluorescence for everything below.
1. P61A
2. E94L
3. P143M
4. G36E
5. R111T

a:
[0.108, 0.0698, 0.0799, 0.0618, 0.0775]

Quick batch: sfGFP reporter fluorescence for everything below.
1. L68P
2. L62M
3. D135R
4. M60N
5. E112C
6. G128I
7. unchanged

a:
0.0583
0.0962
0.098
0.0607
0.0759
0.183
0.0826
